The reported measurements were obtained from the supplement of paper PMC11061612.

- System: A2058 (Melanoma)
- protocol.details: Bliss excess, mean over the matrix (fraction); higher = more synergy
Parameter threshold = 0.02. Response is t when Bliss excess meets or exceeds it, else f.

Does Cn1cnc2c(F)c(Nc3ccc(Br)cc3Cl)c(C(=O)NOCCO)cc21 [Selumetinib] + C[C@@H]1COCCN1C2=NC(=NC(=C2)C3(CC3)[S@](=N)(=O)C)C4=C5C=CNC5=NC=C4 [AZD6738] (first compound max 10 µM, 7x7, partner max 10 µM) have a reported Bliss excess of at least 0.02?
t

Does NC1(C(=O)N[C@@H](CCO)c2ccc(Cl)cc2)CCN(c2ncnc3[nH]ccc23)CC1 [Capivasertib] + CC(=O)c1c(C)c2cnc(Nc3ccc(N4CCNCC4)cn3)nc2n(C2CCCC2)c1=O [Palbociclib] (first compound max 10 µM, 7x7, partner max 10 µM) have a reported Bliss excess of at least 0.02?
f

Does COc1cc2c(cc1OCCCCCOc1cc3c(cc1OC)C(=O)N1C=C(C)C[C@H]1C=N3)N=C[C@@H]1CC(C)=CN1C2=O [SG3199] + O=C(c1cc(Cc2n[nH]c(=O)c3ccccc23)ccc1F)N1CCN(C(=O)C2CC2)CC1 [Olaparib] (first compound max 0.001 µM, 7x7, partner max 10 µM) have a reported Bliss excess of at least 0.02?
f

Does CN(C)CCCOc1ccc(-c2ccc3ncc4c(c3c2)n(C2CCOCC2)c(=O)n4C)cn1 [AZD0156] + O=C(c1cc(Cc2n[nH]c(=O)c3ccccc23)ccc1F)N1CCN(C(=O)C2CC2)CC1 [Olaparib] (first compound max 3 µM, partner max 3 µM) have a reported Bliss excess of at least 0.02?
t

Further cases:
Does Cc1c2c(nn1C)CSCc1cc(n(C)n1)CSc1cc(c3ccccc3c1)OCCCc1c(C(=O)O)n(C)c3c-2c(Cl)ccc13 [AZD5991] + Cn1cnc2c(F)c(Nc3ccc(Br)cc3Cl)c(C(=O)NOCCO)cc21 [Selumetinib] (first compound max 1 µM, 7x7, partner max 3 µM) have a reported Bliss excess of at least 0.02?
t

###

- System: PANC-03-27 (Pancreatic Carcinoma)
- protocol.details: Bliss excess, mean over the matrix (fraction); higher = more synergy
Bliss excess for assorted molecules
I'd appreciate a reply containing only the number, no unit.

Look up and state reported Bliss excess for CC(=O)c1c(C)c2cnc(Nc3ccc(N4CCNCC4)cn3)nc2n(C2CCCC2)c1=O [Palbociclib] + Cn1cnc2c(F)c(Nc3ccc(Br)cc3Cl)c(C(=O)NOCCO)cc21 [Selumetinib] (first compound max 10 µM, 7x7, partner max 10 µM)
-0.0015

Look up and state reported Bliss excess for CN(CCO)CC[C@H](CSc1ccccc1)Nc1ccc(S(=O)(=O)NC(=O)c2ccc(N3CCC([C@@H](O)c4ccccc4-c4ccc(Cl)cc4)CC3)cc2)cc1S(=O)(=O)C(F)(F)F [AZD4320] + C=CCn1c(=O)c2cnc(Nc3ccc(N4CCN(C)CC4)cc3)nc2n1-c1cccc(C(C)(C)O)n1 [AZD1775] (first compound max 1 µM, partner max 1 µM)
0.0079

Look up and state reported Bliss excess for CC1(C)CCC(CN2CCN(c3ccc(C(=O)NS(=O)(=O)c4ccc(NCC5CCOCC5)c([N+](=O)[O-])c4)c(Oc4cnc5[nH]ccc5c4)c3)CC2)=C(c2ccc(Cl)cc2)C1 [Venetoclax] + CN(C)CCCOc1ccc(-c2ccc3ncc4c(c3c2)n(C2CCOCC2)c(=O)n4C)cn1 [AZD0156] (first compound max 1 µM, 7x7, partner max 1 µM)
-0.0876

Look up and state reported Bliss excess for COc1nnc2ccc(N3CCC(c4ccc(OCCN5CCN(C)C(=O)[C@H]5C)cc4)CC3)nn12 [AZD5153] + Cn1cnc2c(F)c(Nc3ccc(Br)cc3Cl)c(C(=O)NOCCO)cc21 [Selumetinib] (first compound max 1 µM, 7x7, partner max 10 µM)
0.0131

Look up and state reported Bliss excess for C=CCn1c(=O)c2cnc(Nc3ccc(N4CCN(C)CC4)cc3)nc2n1-c1cccc(C(C)(C)O)n1 [AZD1775] + O=C(c1cc(Cc2n[nH]c(=O)c3ccccc23)ccc1F)N1CCN(C(=O)C2CC2)CC1 [Olaparib] (first compound max 1 µM, partner max 10 µM)
-0.032

Look up and state reported Bliss excess for C=CCn1c(=O)c2cnc(Nc3ccc(N4CCN(C)CC4)cc3)nc2n1-c1cccc(C(C)(C)O)n1 [AZD1775] + C1CN(CCC1(C(=O)N[C@@H](CCO)C2=CC=C(C=C2)Cl)N)C3=NC=NC4=C3C=CN4 [Capivasertib] (first compound max 3 µM, partner max 3 µM)
-0.0573

Look up and state reported Bliss excess for COc1cccc(OCCCN)c1-c1cc(Nc2cnc(C#N)cn2)n[nH]1 [Prexasertib] + CCc1c2c(nc3ccc(O)cc13)-c1cc3c(c(=O)n1C2)COC(=O)[C@]3(O)CC [SN-38] (first compound max 1 µM, 7x7, partner max 0.3 µM)
-0.0381

###

- System: RERF-GC-1B (Gastric Carcinoma)
- protocol.details: combination Emax (second highest fraction inhibited in the dose matrix, 72 h); higher = more inhibition; extreme values may be limits of the assay
result.type: combination Emax
I'd appreciate a reply containing only the number, no unit.

Look up and state reported combination Emax for NC1(C(=O)N[C@@H](CCO)c2ccc(Cl)cc2)CCN(c2ncnc3[nH]ccc23)CC1 [Capivasertib] + CC(=O)c1c(C)c2cnc(Nc3ccc(N4CCNCC4)cn3)nc2n(C2CCCC2)c1=O [Palbociclib] (first compound max 10 µM, 7x7, partner max 10 µM)
0.458

Look up and state reported combination Emax for NC1(C(=O)N[C@@H](CCO)c2ccc(Cl)cc2)CCN(c2ncnc3[nH]ccc23)CC1 [Capivasertib] + Cn1cnc2c(F)c(Nc3ccc(Br)cc3Cl)c(C(=O)NOCCO)cc21 [Selumetinib] (first compound max 10 µM, 7x7, partner max 10 µM)
0.6

Further cases:
Look up and state reported combination Emax for C=CCn1c(=O)c2cnc(Nc3ccc(N4CCN(C)CC4)cc3)nc2n1-c1cccc(C(C)(C)O)n1 [AZD1775] + C[C@@H]1COCCN1C2=NC(=NC(=C2)C3(CC3)[S@](=N)(=O)C)C4=C5C=CNC5=NC=C4 [AZD6738] (first compound max 1 µM, partner max 10 µM)
0.851

###

- Tested on: SF539 (Glioblastoma)
- protocol.details: Bliss excess, mean over the matrix (fraction); higher = more synergy
Bliss excess for assorted compounds
I'd appreciate a reply containing only the number, no unit.

# annotated cases, reported Bliss excess shown
Give Bliss excess only, for C[C@@H](c1ccc2nccn2c1)n1nnc2ncc(-c3cnn(C)c3)nc21 [Savolitinib] + CC1(C)CCC(CN2CCN(c3ccc(C(=O)NS(=O)(=O)c4ccc(NCC5CCOCC5)c([N+](=O)[O-])c4)c(Oc4cnc5[nH]ccc5c4)c3)CC2)=C(c2ccc(Cl)cc2)C1 [Venetoclax] (first compound max 1 µM, 7x7, partner max 1 µM) , using SF539 (Glioblastoma) data.
-0.0697

Give Bliss excess only, for C[C@@H]1COCCN1c1cc(C2([S@](C)(=N)=O)CC2)nc(-c2ccnc3[nH]ccc23)n1 [AZD6738] + C1CC(C1)(C(=O)[O-])C(=O)[O-].N.N.[Pt+2] [Carboplatin] (first compound max 10 µM, 7x7, partner max 10 µM) , using SF539 (Glioblastoma) data.
-0.0835

// next entry
Give Bliss excess only, for CN(CCO)CC[C@H](CSc1ccccc1)Nc1ccc(S(=O)(=O)NC(=O)c2ccc(N3CCC([C@@H](O)c4ccccc4-c4ccc(Cl)cc4)CC3)cc2)cc1S(=O)(=O)C(F)(F)F [AZD4320] + CN(C)CCCOc1ccc(-c2ccc3ncc4c(c3c2)n(C2CCOCC2)c(=O)n4C)cn1 [AZD0156] (first compound max 1 µM, 7x7, partner max 1 µM) , using SF539 (Glioblastoma) data.
-0.0163

###

- Tested on: L-1236 (Hodgkin's Lymphoma)
- protocol.details: Bliss excess, mean over the matrix (fraction); higher = more synergy
Bliss excess for assorted compounds
I'd appreciate a reply containing only the number, no unit.

Look up and state reported Bliss excess for C[C@@H](Oc1cc(-c2cnn(C3CCNCC3)c2)cnc1N)c1c(Cl)ccc(F)c1Cl [Crizotinib] + Cn1cnc2c(F)c(Nc3ccc(Br)cc3Cl)c(C(=O)NOCCO)cc21 [Selumetinib] (first compound max 10 µM, 7x7, partner max 10 µM)
-0.0849

Further cases:
Look up and state reported Bliss excess for CN(CCO)CC[C@H](CSc1ccccc1)Nc1ccc(S(=O)(=O)NC(=O)c2ccc(N3CCC([C@@H](O)c4ccccc4-c4ccc(Cl)cc4)CC3)cc2)cc1S(=O)(=O)C(F)(F)F [AZD4320] + Nc1ccn([C@@H]2O[C@H](CO)[C@@H](O)C2(F)F)c(=O)n1 [Gemcitabine] (first compound max 1 µM, 7x7, partner max 0.3 µM)
-0.0377

Look up and state reported Bliss excess for Cn1cnc2c(F)c(Nc3ccc(Br)cc3Cl)c(C(=O)NOCCO)cc21 [Selumetinib] + CC(C)n1c(=O)n(C)c2cnc3cc(F)c(-c4ccc(OCCCN5CCCCC5)nc4)cc3c21 [AZD1390] (first compound max 10 µM, 7x7, partner max 0.3 µM)
0.0284
